Taken from patent US12012446B2.

Tested on: EBV gp350 20-mer linear peptides (gp350 regions)
Type: binding, Epstein-Barr virus
experimentalContext: 10 μg/ml mAb, 10 μg/ml peptide
measurementName: binding to gp350 region AA 102-201 (linear peptides)

molecule	obsValue
HB20: murine anti-EBV gp350 mAb, IgG2a κ; SEQ ID NO: 128 / 129; neutralizing (antibody, V domains shown, heavy chain mAb HB20; light chain mAb HB20, murine anti-EBV gp350 mAb, IgG2a κ; neutralizing) VH: ELVKPGASVKLSCKASGYTFTSYWIQWVKQRPGQGLEWIGEINPTNGHTNYNEKFKTKATLTVDKSSSTAYMRLSSLTSEDSAVYYCARNLYYYGRPDYWGQGTSVTVSSAKTTAPSVYPLAPVCGDTTGSSVTLG VL: SSLSASLGDRVTISCRASQDIGNYLNWYQQKPDGTVKLLIYYTSRLHSGVPSRFSGSGSGTDYSLTISNLEQEDIATYFCQQGNALPPTFGGGTKLEIKRADAAPTV	bound
HB11: murine anti-EBV gp350 mAb, IgG1 κ; SEQ ID NO: 120 / 121; neutralizing (antibody, V domains shown, heavy chain mAb HB11; light chain mAb HB11, murine anti-EBV gp350 mAb, IgG1 κ; neutralizing) VH: PSLVKPSQTLSLTCSVTGDSITSGFWNWIRKFPGNKLEYMGYISYSGSTYYNPSLKSRISITRDTSKNQYYLQLNSVTTEDTATYYCARGNGGNYDWYFDVWGAGTTVTVSSAKTTPPSVYPLAPGSAAQTNSMVTLG VL: AIMSASLGEKVTMSCRASSSVNFMNWYQQKSDDSPKLLIYYISNLAPGVPARFSGSGSGNSYSLTISGMEGEDAATYYCQQFTSSPSWTFGGGTKLEIKRADAAPTV	bound
